test system: crabgrass (Digitaria sanguinalis); assay: Preemergence herbicidal activity; assay type: in vivo; details: 35 g/Ha; scored after 3 weeks; 0 no injury, 100 complete kill or no germination
Item-by-item account of Preemergence herbicidal activity DIGSA
The figure you give is taken to be in %; do not add the unit.

[
  {
    "compound": "COc1cc(OC)n2nc(NS(=O)(=O)c3c(C(F)(F)C(F)(F)F)ccnc3OC)nc2n1 [Compound 18]",
    "unit annotation": "%",
    "Preemergence herbicidal activity DIGSA": 100
  },
  {
    "compound": "CCOc1nccc(C(F)(F)F)c1S(=O)(=O)Nc1nc2nc(OC)cc(OC)n2n1 [Compound 19]",
    "unit annotation": "%",
    "Preemergence herbicidal activity DIGSA": 80
  },
  {
    "compound": "COc1cc(OC)n2nc(NS(=O)(=O)c3cc(C)ccc3OC)nc2n1 [Compound 6]",
    "unit annotation": "%",
    "Preemergence herbicidal activity DIGSA": 100
  },
  {
    "compound": "COc1cc(OC)n2nc(NS(=O)(=O)c3cc(Cl)ccc3OCCF)nc2n1 [Compound 13]",
    "unit annotation": "%",
    "Preemergence herbicidal activity DIGSA": 100
  }
]

With those in mind, consider the next compound.
Sure, the documented Preemergence herbicidal activity DIGSA for CCOc1ccc(C)cc1S(=O)(=O)Nc1nc2nc(OC)cc(OC)n2n1 [Compound 10] is 0
